target or system: human GIP receptor (Homo sapiens, UniProt P48546)
Construct: host or cells: COS-7 (transient, calcium phosphate; pCMV-Script vector)
Sequence (P48546 22-466): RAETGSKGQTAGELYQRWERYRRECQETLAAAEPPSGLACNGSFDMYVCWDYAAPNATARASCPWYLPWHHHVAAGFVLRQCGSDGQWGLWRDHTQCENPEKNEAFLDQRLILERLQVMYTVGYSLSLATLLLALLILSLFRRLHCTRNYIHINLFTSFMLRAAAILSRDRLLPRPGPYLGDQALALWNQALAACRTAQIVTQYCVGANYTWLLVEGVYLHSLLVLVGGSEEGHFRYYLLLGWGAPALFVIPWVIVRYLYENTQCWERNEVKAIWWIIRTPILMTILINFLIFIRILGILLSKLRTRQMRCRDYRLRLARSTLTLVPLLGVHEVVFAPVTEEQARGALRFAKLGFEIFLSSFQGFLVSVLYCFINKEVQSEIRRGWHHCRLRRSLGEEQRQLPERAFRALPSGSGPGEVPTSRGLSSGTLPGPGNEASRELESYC
experiment notes: cAMP accumulation assay (HitHunter cAMP XS) in transiently transfected COS-7 cells expressing the human GIP receptor
Type: cell-based
condition description: logEC50, GIP receptor, Table 1; log value; cAMP, COS-7
Ends that are not written are not given here.
Hi there, I'd appreciate the recorded pEC50 for every entry that follows.
Answers are plain numbers, as −log10 of the molar value.

residue string: HVDGTFISDYSTILDNLAARDFINWLIQTKITD [Co-agonist 12]
target or system: human GIP receptor (Homo sapiens, UniProt P48546)
pEC50: 8.96
//
residue string: HAEGSFISDYSTILDNLAARDFINWLIQTKITD [Co-agonist 4]
target or system: human GIP receptor (Homo sapiens, UniProt P48546)
pEC50: 7.42

Fill in pEC50 for each of the 4 sequences listed.
1. HADGTFISEYSTILDNLAARDFINWLIQTKITD [Co-agonist 15]
2. HGDGTFISDYSTILDNLAARDFINWLIQTKITD [Co-agonist 11]
3. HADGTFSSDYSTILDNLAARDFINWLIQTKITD [Co-agonist 13]
4. HADGTFIDDYSTILDNLAARDFINWLIQTKITD [Co-agonist 14]

*A*
1. 8.50
2. 8.50
3. 7.92
4. 8.63

----------
Task for the reader: assign each of the following sequences its reported EC50.
target or system: human GLP-2 receptor (Homo sapiens)
Construct: host or cells: COS-7 (transient, calcium phosphate; pCMV-Script vector)
Sequence (O95838 1-553): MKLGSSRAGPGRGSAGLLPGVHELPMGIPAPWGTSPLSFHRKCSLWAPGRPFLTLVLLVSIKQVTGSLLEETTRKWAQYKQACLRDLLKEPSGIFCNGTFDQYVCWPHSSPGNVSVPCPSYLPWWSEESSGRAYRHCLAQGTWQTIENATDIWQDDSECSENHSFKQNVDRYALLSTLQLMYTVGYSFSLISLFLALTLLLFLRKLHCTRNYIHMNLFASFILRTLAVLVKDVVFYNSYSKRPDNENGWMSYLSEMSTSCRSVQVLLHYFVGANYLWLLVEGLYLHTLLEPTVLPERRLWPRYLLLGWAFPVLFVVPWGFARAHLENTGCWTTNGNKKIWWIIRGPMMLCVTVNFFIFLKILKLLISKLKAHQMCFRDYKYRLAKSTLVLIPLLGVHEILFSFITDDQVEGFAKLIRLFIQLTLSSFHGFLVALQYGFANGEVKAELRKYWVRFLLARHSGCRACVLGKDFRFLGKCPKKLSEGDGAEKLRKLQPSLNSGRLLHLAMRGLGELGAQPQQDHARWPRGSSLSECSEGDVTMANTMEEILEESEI
experiment notes: cAMP accumulation assay (HitHunter cAMP XS) in transiently transfected COS-7 cells expressing the human GLP-2 receptor
Format: cell-based
condition description: EC50(nM), GLP-2 receptor, Table 1; cAMP, COS-7
Method: The day after, the cells were washed twice with Hepes buffered saline (HBS) buffer and incubated with HBS and 1 mM 3-isobutyl-1-methylxanthine (IBMX) for 30 min at 37° C. Ligands were added and incubated for 30 min at 37° C. The HitHunter™ cAMP XS assay (DiscoveRx) was carried out according to the manufacturer's instructions.
Ends that are not written are not given here.
Numbers only, in nM.

residue string: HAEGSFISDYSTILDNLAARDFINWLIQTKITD [Co-agonist 4]
target or system: human GLP-2 receptor (Homo sapiens)
unit symbol: nM
EC50: 25

Let's switch to this sequence now.
*Q* Quick one: EC50 of HAEGTFSDEYSTILDNLAARDFINWLIQTKITD [Co-agonist 5] ?
*A* 6.2

----------
target or system: human GLP-2 receptor (Homo sapiens, UniProt O95838)
Construct: host or cells: COS-7 (transient, calcium phosphate; pCMV-Script vector)
Sequence (O95838 1-553): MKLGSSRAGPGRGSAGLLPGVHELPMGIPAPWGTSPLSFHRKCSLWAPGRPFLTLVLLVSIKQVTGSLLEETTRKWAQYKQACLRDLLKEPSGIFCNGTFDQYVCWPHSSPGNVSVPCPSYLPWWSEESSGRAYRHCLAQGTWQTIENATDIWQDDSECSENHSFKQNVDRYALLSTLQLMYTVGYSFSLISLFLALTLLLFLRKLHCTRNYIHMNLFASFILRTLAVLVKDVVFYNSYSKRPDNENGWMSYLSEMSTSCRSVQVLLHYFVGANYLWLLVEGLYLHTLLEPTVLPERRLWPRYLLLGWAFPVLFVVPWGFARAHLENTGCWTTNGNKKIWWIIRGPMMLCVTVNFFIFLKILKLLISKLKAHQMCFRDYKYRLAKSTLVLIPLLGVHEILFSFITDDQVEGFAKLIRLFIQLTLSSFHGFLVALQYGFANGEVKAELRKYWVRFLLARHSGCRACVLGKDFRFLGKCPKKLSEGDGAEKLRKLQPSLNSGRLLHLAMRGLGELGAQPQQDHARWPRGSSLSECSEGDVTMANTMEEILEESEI
experiment notes: cAMP accumulation assay (HitHunter cAMP XS) in transiently transfected COS-7 cells expressing the human GLP-2 receptor
Assay type: cell-based
Ends that are not written are not given here.
test readout: EC50 (nM)
Numbers only, in nM.

*Q* Recorded EC50 for HAEGTFISDYSTILDNLAARDFINWLIQTKGKK [Co-agonist 10] , please?
*A* 21.9

----------
target or system: human GLP-2 receptor (Homo sapiens, UniProt O95838)
Construct: host or cells: COS-7 (transient, calcium phosphate; pCMV-Script vector)
Sequence (O95838 1-553): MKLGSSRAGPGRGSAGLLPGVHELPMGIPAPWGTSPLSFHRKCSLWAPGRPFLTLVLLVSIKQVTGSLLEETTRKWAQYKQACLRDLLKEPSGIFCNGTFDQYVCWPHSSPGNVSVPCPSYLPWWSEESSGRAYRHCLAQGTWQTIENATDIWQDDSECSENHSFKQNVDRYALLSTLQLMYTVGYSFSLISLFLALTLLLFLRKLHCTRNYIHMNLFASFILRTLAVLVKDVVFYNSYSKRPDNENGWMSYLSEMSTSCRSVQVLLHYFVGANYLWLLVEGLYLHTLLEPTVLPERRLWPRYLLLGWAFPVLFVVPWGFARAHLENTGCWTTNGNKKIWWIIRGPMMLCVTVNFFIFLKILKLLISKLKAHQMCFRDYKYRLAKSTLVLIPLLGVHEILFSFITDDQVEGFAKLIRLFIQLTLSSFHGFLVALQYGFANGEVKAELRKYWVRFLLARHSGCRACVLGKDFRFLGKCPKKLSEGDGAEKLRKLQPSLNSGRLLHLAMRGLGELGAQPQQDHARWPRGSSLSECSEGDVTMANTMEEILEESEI
experiment notes: cAMP accumulation assay (HitHunter cAMP XS) in transiently transfected COS-7 cells expressing the human GLP-2 receptor
Assay type: cell-based
condition description: logEC50, GLP-2 receptor, Table 1; cAMP, COS-7
Ends that are not written are not given here.
test readout: pEC50
Answers are plain numbers, as −log10 of the molar value.

Some solved cases for reference:
residue string: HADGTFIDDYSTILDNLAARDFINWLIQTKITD [Co-agonist 14]
reported value: 7.97
--
residue string: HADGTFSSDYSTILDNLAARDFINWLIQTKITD [Co-agonist 13]
reported value: 7.95
--
residue string: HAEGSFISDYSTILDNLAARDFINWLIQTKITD [Co-agonist 4]
reported value: 7.59
--
residue string: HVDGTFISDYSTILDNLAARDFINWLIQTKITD [Co-agonist 12]
reported value: 7.60
--
residue string: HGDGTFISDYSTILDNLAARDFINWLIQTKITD [Co-agonist 11]
reported value: 7.62
--
residue string: HADGTFISDYSTILDNLAARDFINWLIQTKGTD [Co-agonist 16]
reported value: 7.06

Turning now to a further sequence:
*Q* So what does the record say about pEC50 for HADGTFISDYSTILDNLAARDFINWLIQTKIKD [Co-agonist 17] ?
*A* 7.61

----------
Please go through the items and note down their EC50.
target or system: human GIP receptor (Homo sapiens)
Construct: host or cells: COS-7 (transient, calcium phosphate; pCMV-Script vector)
experiment notes: cAMP accumulation assay (HitHunter cAMP XS) in transiently transfected COS-7 cells expressing the human GIP receptor
Format: cell-based
Ends that are not written are not given here.
Answers are plain numbers, in nM.

// for each sequence below, give its EC50
1. HAEGTFISDYSIAMDKLAARDFINWLIQTKITD [Co-agonist 7]
2. HAEGTFISDYSTILDNLAARDFVNWLLAQKITD [Co-agonist 9]
3. HAEGTFISDYSTILDNLAARDFINWLIQTKITD [Co-agonist 1]
4. HAEGTFISDYSTILDNLAARDFINWLIQTKITDNDWKHNITQ [Co-agonist 2]

*A*
25.7
3.16
29.5
12
